These data points were gathered from the supplement of paper PMC7125110.

B1: glmS ribozyme (parent)
chain: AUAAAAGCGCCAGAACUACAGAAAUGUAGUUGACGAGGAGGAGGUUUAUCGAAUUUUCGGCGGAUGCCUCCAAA

Variants of: B1
test method notes: self-cleavage kobs at 40 uM GlcN6P; higher = faster cleavage; RNA array
condition notes: with glucosamine-6-phosphate
Fewer inactive variants are shown than the library holds.
Each entry below lists one item and its recorded self-cleavage kobs at 40 uM GlcN6P value.
assay endpoint: self-cleavage kobs at 40 uM GlcN6P

INSERT INTO results (variant_identifier, result) VALUES
  ('G43C G44U C58U', '< 1e-05 s⁻¹'),
  ('A15U U65G', '3.19e-05 s⁻¹'),
  ('G41U G43A', '< 1e-05 s⁻¹'),
  ('C34A U47G U54G G59U C68G', '0.000664 s⁻¹'),
  ('C10U A53U G59C C68G', '< 1e-05 s⁻¹'),
  ('A12U A42G U56A C67U', '0.000207 s⁻¹'),
  ('G13C U69G', '3.61e-05 s⁻¹'),
  ('G13C U30G U54G G63U C67U', '< 1e-05 s⁻¹'),
  ('C8G G60C', '< 1e-05 s⁻¹'),
  ('A6G G43A', '< 1e-05 s⁻¹'),
  ('U56A C68U', '0.000143 s⁻¹'),
  ('G7A A14C', '< 1e-05 s⁻¹'),
  ('C10G G51A', '< 1e-05 s⁻¹'),
  ('G66A C68U', '0.000228 s⁻¹'),
  ('A15C G44A', '< 1e-05 s⁻¹'),
  ('A6U A12U G32U G60U', '< 1e-05 s⁻¹'),
  ('A48G U69A', '< 1e-05 s⁻¹'),
  ('G7A G41A U45C U49A', '< 1e-05 s⁻¹'),
  ('U31G G43C', '< 1e-05 s⁻¹'),
  ('C58A U65A C67G', '< 1e-05 s⁻¹'),
  ('C11G U57G', '< 1e-05 s⁻¹'),
  ('G7U U30G', '< 1e-05 s⁻¹'),
  ('C16G G62U C67G', '< 1e-05 s⁻¹'),
  ('G35A U45C C71U', '< 1e-05 s⁻¹'),
  ('U45A C71U', '0.00126 s⁻¹'),
  ('G44C C71A', '< 1e-05 s⁻¹'),
  ('U45G A52U', '< 1e-05 s⁻¹'),
  ('G41A U45G', '2.84e-05 s⁻¹'),
  ('U54G G62C U69C', '< 1e-05 s⁻¹');
